system: human mGluR2 (Homo sapiens (Human))
Sequence (Q14416 19-872): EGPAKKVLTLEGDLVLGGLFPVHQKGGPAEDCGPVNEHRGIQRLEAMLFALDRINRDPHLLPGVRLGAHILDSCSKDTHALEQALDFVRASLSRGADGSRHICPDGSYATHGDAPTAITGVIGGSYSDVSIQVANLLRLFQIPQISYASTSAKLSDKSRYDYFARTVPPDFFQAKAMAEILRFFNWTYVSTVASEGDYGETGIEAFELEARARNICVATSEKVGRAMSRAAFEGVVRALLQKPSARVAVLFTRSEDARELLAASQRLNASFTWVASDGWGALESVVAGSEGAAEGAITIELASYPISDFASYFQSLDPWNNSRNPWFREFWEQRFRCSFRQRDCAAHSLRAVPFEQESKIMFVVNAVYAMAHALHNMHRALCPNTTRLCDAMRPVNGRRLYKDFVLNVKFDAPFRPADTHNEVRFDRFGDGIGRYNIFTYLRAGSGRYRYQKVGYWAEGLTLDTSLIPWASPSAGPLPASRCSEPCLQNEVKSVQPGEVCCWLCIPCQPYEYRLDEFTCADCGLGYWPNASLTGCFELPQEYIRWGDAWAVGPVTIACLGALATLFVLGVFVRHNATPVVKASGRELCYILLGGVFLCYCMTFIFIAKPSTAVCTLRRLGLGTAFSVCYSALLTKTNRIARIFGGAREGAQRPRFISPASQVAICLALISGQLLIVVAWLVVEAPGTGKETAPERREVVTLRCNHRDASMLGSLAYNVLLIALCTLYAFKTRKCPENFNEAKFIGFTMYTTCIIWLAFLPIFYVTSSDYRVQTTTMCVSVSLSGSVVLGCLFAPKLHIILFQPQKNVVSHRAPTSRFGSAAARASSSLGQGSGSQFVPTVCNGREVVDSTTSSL
assay-details: MGluR2 cAMP assay
cond: HEK293 cells clonally expressing human mGluR2, 1 μM forskolin, 1 μM LY-341495
# note: exactly 100 nM is not below, so it is Not fulfilled; use Fulfilled for EC50 strictly under it

Query: In plain terms, does COc1c(N2CCC(c3ccc(F)cc3)CC2)ncn2c(CC(C)(C)C)nnc12 come in under 100 nM for EC50?
Result: Not fulfilled

Query: In plain terms, does COc1cccc(F)c1C1CCN(c2cnn3c(CC4CC4)nnc3c2Cl)CC1 come in under 100 nM for EC50?
Result: Fulfilled

Query: In plain terms, does Clc1c(N2CCC3(C=Cc4ccccc43)CC2)cnn2c(CC3CC3)nnc12 come in under 100 nM for EC50?
Result: Not fulfilled

Query: In plain terms, does Fc1ccc([C@@H]2C[C@H]2CNc2cnn3c(CC4CC4)nnc3c2Cl)cc1 (racemic) [Example 9] come in under 100 nM for EC50?
Result: Fulfilled

Query: In plain terms, does COc1cccnc1C1CCN(c2cnn3c(CC(F)(F)F)nnc3c2Cl)CC1 come in under 100 nM for EC50?
Result: Fulfilled

Query: In plain terms, does Fc1ccc(N2CCN(c3cnn4c(CC5CC5)nnc4c3Cl)CC2)cc1 come in under 100 nM for EC50?
Result: Not fulfilled
